Assay: Tissue distribution of radioactivity in rats after intravenous administration
Assay type: in vivo
Details: rat, heart, iv, 2 h, read-out: Distribution of radioactivity, Heart
Protocol: In Table I, the tissue distribution of radioactivity in rats after intravenous administration of a bovine serium-albumin complex of the 15-(p-[^125 I]-iodophenyl)-6-Tellurapentadecanoic acid is summarized for various time periods from 5 minutes to 5 days.
QUANTITY KIND: tissue uptake at 2 h (%ID/g)
Value expressed in %ID/g; do not type the unit.

Task: What value of tissue uptake at 2 h has been reported for the following molecule? O=C(O)CCCC[Te]CCCCCCCCCc1ccc([125I])cc1
Result: 5.85

----------
Assay: Tissue distribution of radioactivity in rats after intravenous administration
Format: in vivo
Details: rat, liver, iv, 1 d, read-out: Distribution of radioactivity, Liver
QUANTITY KIND: tissue uptake at 24 h (%ID/g)
Give a bare numeral; the unit %ID/g is implied.

Task: Need tissue uptake at 24 h of O=C(O)CCCC[Te]CCCCCCCCCc1ccc([125I])cc1 , thanks.
Result: 6.24
